Where do these numbers come from? They come from patent US4391824A.

target: human skin fibroblast collagenase (Homo sapiens, UniProt P03956); construct: endogenous in cells; host or cells: human skin fibroblasts (from the enzyme's name; preparation not described); assay: Collagenase Assay, Test Code 006 (degradation of 14C-labeled native collagen fibrils); assay type: biochemical; conditions: test concentration 30 μg/ml; 16 hours at 37° C.; based on 0% value for enzyme control
Sequence (P03956 100-469): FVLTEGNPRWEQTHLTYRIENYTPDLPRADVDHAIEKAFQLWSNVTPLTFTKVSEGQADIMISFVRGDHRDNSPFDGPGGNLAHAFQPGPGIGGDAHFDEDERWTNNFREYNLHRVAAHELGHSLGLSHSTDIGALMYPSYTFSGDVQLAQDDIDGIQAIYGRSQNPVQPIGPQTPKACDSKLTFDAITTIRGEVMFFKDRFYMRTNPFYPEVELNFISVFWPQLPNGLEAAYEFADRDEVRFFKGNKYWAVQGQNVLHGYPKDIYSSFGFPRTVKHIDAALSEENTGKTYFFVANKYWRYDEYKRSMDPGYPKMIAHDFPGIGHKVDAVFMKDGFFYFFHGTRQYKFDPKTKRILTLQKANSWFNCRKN
OBSERVABLE: inhibition at 30 µg/mL
Note to self: number, then unit, no commentary.

Can you look up the measured inhibition at 30 µg/mL of Cc1cc(C(=O)Nc2cc(S(=O)(=O)O)cc3cc(S(=O)(=O)O)cc(O)c23)ccc1NC(=O)Nc1ccc(C(=O)Nc2cc(S(=O)(=O)O)cc3cc(S(=O)(=O)O)cc(O)c23)cc1C for me? 78%

Field entry: O=C(Nc1cccc(C(=O)Nc2cc(S(=O)(=O)O)cc3cc(S(=O)(=O)O)cc(O)c23)c1)Nc1cccc(C(=O)Nc2cc(S(=O)(=O)O)cc3cc(S(=O)(=O)O)cc(O)c23)c1 41%

Field entry: Cc1ccc(NC(=O)Nc2ccc(C)c(C(=O)Nc3cc(S(=O)(=O)O)cc4cc(S(=O)(=O)O)cc(O)c34)c2)cc1C(=O)Nc1cc(S(=O)(=O)O)cc2cc(S(=O)(=O)O)cc(O)c12 50%

Field entry: O=C(Nc1ccc(C(=O)Nc2cccc3cc(S(=O)(=O)O)cc(O)c23)c(S(=O)(=O)O)c1)Nc1ccc(C(=O)Nc2cccc3cc(S(=O)(=O)O)cc(O)c23)c(S(=O)(=O)O)c1 58%

Field entry: Cc1c(NC(=O)Nc2cccc(C(=O)Nc3cc(S(=O)(=O)O)cc4cc(S(=O)(=O)O)cc(O)c34)c2C)cccc1C(=O)Nc1cc(S(=O)(=O)O)cc2cc(S(=O)(=O)O)cc(O)c12 32.2%

Field entry: O=C(Nc1cccc(C(=O)Nc2cc3c(O)cc(S(=O)(=O)O)cc3cc2S(=O)(=O)O)c1)Nc1cccc(C(=O)Nc2cc3c(O)cc(S(=O)(=O)O)cc3cc2S(=O)(=O)O)c1 41%
